# Tested on: RXF 631
# PROTOCOL_SUMMARY: NCI tumour cell line growth inhibition, 48 h
Activity calls are given as the source filed them. Rule as the data show it: active = GI50 up to about 1.1 µM and inactive = higher.
Outcome (select one): 1.0 = active, 0.0 = inactive

Check out these entries, answers already filled in.
CCOC(=O)/C=C1/C(CCCOCc2ccccc2)C2CCCC23CC2(CCN13)OCCO2 (stereo unspecified)    0.0
CCOC(=O)[C@@]12C(C)=CC(=O)O[C@]1(C)C1C(=O)NC(=O)C12 (stereo partly specified)    0.0
CCCCCCCCCC1CC(=O)OC2=C1C(=O)CCC2 (stereo unspecified)    0.0
O=C(c1ccccc1)c1ccc2cccc(O)c2n1    0.0
Cc1cccc(-c2nc3c(C(=O)NCCN(C)C)cccc3[nH]2)c1    1.0

With those in mind, consider the next molecule.
[in] Entry CCCCC(=O)OC[n+]1ccc2c(C)c3[nH]c4ccc(OC)cc4c3c(C)c2c1 : call = ?
[out] 1.0

====

# Tested on: 786-0
# PROTOCOL_SUMMARY: NCI tumour cell line growth inhibition, 48 h
Calls of active or inactive are those of the source. Rule as the data show it: active = GI50 up to about 1.1 µM and inactive = higher.
Outcomes you can answer with include only these: t for active, f for inactive

As a guide, the following entries are already answered.
OC1(c2ccc(-c3ccccc3)cc2)c2ccccc2C2=NCCN21 (centres undefined)    f
C/C(=C\CC[C@]1(C)OC(C)(C)OC1CC/C(C)=C/CO[Si](c1ccccc1)(c1ccccc1)C(C)(C)C)CC/C=C/CO[Si](C)(C)C(C)(C)C (some centres undefined)    f
O=C(N/N=C/c1ccco1)c1cc(I)cc(I)c1O    f
Cn1c(=O)c2c(ncn2CCCCOc2ccc3c(c2)[n+]([O-])nc(N)[n+]3[O-])n(C)c1=O    f
CN(C)c1ccc(/C=C2\C[C@H]3[C@@H]4CC=C5C[C@@H](O)CC[C@]5(C)[C@H]4CC[C@]3(C)[C@H]2O)cc1    f

[in] Outcome logged for CCOC(=O)c1sc2[n+](c1C)C(=O)/C(=C/c1ccccc1Cl)S2 in this assay:
[out] t

[in] For N#CC1C(=O)NC(=O)C1=O (centres undefined) , which call appears in the assay record?
[out] f

[in] Hey, what did the test say about Cc1ccc(S(=O)(=O)NC(=O)NNc2ccc(F)cc2)cc1 ?
[out] f

[in] Tell me the assay call for Cc1c2c(n(C)c1C)C(=O)C1C(C2=O)C2(C)c3ccccc3C1(C)c1ccccc12 (centres undefined) please.
[out] f

====

# System: HCC 2998
# PROTOCOL_SUMMARY: NCI tumour cell line growth inhibition, 48 h
Calls of active or inactive are those of the source. Rule as the data show it: active = GI50 up to about 1.1 µM and inactive = higher.
I would appreciate it if you answered using one of these outcomes: y for active, n for inactive

Fc1cccc(C2SCc3nc4ccccc4n32)c1 (configuration not stated)    n
Nc1nc(SCc2ccccn2)c2ncn(C3CCCC3)c2n1    n
NC1CC2NC3CCCCC3NC2CC1N (configuration not stated)    n
C#CCNC(CCCNC(=N)N)C(=O)O (configuration not stated)    n

Note: attention shifts to another entry.
[in] Called result for CCOC(=O)c1ccc(/C(C)=N/NC(N)=S)cc1
[out] n

====

# Test system: UO-31
# PROTOCOL_SUMMARY: NCI tumour cell line growth inhibition, 48 h
The source made the active and inactive calls. No stated cut-off is given here; in the data, active = GI50 up to about 1.1 µM and inactive = higher.
I'd be grateful if you could share measured GI50 for these entries.

CCN(CC)CCC1CCCCN1CC(=O)N1c2ccccc2NC(=O)c2ccccc21 (stereo not given)    > 100 µM (inactive)
CC(=O)OC1CC2C(=O)C(=O)C1(C)C2(C)C (stereo not given)    > 100 µM (inactive)
CC(C)OCN1COCN/C1=N/C#N    > 100 µM (inactive)
O=C1OC(CN2CCOCC2)CN1/N=C/c1ccc([N+](=O)[O-])o1 (stereo not given) [FURALTADONE]    97.1 µM (inactive)
CC(C)C1(Cl)CCC2C3(C)CCCC(C)(C(=O)O)C3CC(Cl)C2(Cl)C1Cl (stereo not given)    32.1 µM (inactive)
O=C1C[C@@H](c2ccc(O)cc2)[C@@]2(O1)C(=O)O[C@H]([C@@H](O)CO)[C@@H]2O    > 100 µM (inactive)
CCN(CC)Cc1cc(/N=N\c2c(O)ccc3c(/N=N\c4ccc(O)c(CN(CC)CC)c4)c(O)ccc23)ccc1O    2 µM (inactive)
CC(=O)OCCOCn1cc(C=O)c2ccccc21    > 100 µM (inactive)

Here are 2 compounds. What values of GI50 were reported for them?
1. O=C1C(NS(=O)(=O)c2ccccc2)=C(N(Cc2ccccc2)Cc2ccccc2)C(=O)c2ccccc21
2. CCN1CN(c2ccccc2)C2(CCN(CCCSc3ccc(F)cc3)CC2)C1=O

[out]
["19.2 µM (inactive)", "5.97 µM (inactive)"]

Look at each compound and report its GI50.
1. O=C(O)c1ccc(/C=N/N=C2c3ccccc3-c3ccccc32)cc1
2. CC(C)CC1C(=O)NCCC(NC(=O)C(Cc2ccc(OC(C)(C)C)cc2)NC(=O)OC(C)(C)C)C(=O)NC(Cc2ccccc2)C(=O)NC(Cc2ccccc2)NC1=O (stereo not given)
3. O=C(O)[C@H](c1ccccc1)[C@@H](C(=O)O)c1ccccc1
4. Nc1nc(S)nc(C(=O)Nc2nccs2)c1-c1ccccc1
5. CSCCCNC(=O)c1csc(-c2csc(CCNC(=O)CNC(=O)CNC(=O)CNC(=O)OC(C)(C)C)n2)n1
6. CC(C(=O)ON1C(=O)CCC1=O)c1ccc(C(=O)c2ccccc2)s1 (stereo not given)
7. Cc1cccc(-c2nc3c(C(=O)NCCN(C)C)cccc3[nH]2)c1

[out]
["42 µM (inactive)", "> 100 µM (inactive)", "> 100 µM (inactive)", "> 100 µM (inactive)", "> 100 µM (inactive)", "> 100 µM (inactive)", "2.06 µM (inactive)"]

Quick request: GI50 for each listed item, please.
1. COc1cc2c(oc(=O)c3c4oc([Si](C)(C)C)cc4cc(OC)c23)c2cccc(OCc3ccccc3)c12
2. NC(=O)NC(=O)CCC(NS(=O)(=O)c1ccccc1)C(=O)NC(N)=O (stereo not given)
3. O=c1c2cc([N+](=O)[O-])ccc2oc2nc3n(c(=O)c12)CCCS3

[out]
["> 63.7 µM (inactive)", "> 100 µM (inactive)", "> 100 µM (inactive)"]

====

# Test system: LXFL 529
# PROTOCOL_SUMMARY: NCI tumour cell line growth inhibition, 48 h
Calls of active or inactive are those of the source. Cut-off read from the data, not from the text of the source: active = GI50 up to about 1.1 µM and inactive = higher.
OBSERVED_PROPERTY: GI50

Examples from the recorded data:
O=C1c2ccccc2C(=O)N1C/C=N/NS(=O)(=O)c1ccc(Br)cc1    > 100 µM (inactive)
O=C(Cc1nc2ccccc2s1)Nc1cccc(C(F)(F)F)c1    13.4 µM (inactive)
O=CN/C=C/c1ccc(O)c(O)c1    > 100 µM (inactive)
Cc1c(NC(=O)C(C)(C)Br)c(=O)oc2c(C)c3occc(=O)c3cc12    42.9 µM (inactive)
C=CCN(C)CN(C)c1nc(N(C)C)nc(N(C)C)n1    26.1 µM (inactive)

[in] Field: GI50 (LXFL 529). Entry: C(/COc1cccnc1)=N\NC1=NCCN1
[out] > 100 µM (inactive)

====

I'd be grateful if you could share measured GI50 for these entries.
# Test system: OVCAR-8
# PROTOCOL_SUMMARY: NCI tumour cell line growth inhibition, 48 h
The source made the active and inactive calls. Cut-off read from the data, not from the text of the source: active = GI50 up to about 1.1 µM and inactive = higher.

Here's what some known entries look like.
CC[C@]1(Cc2ccc(OC)c(OC)c2)C=[N+]([O-])O[C@H](OC2CCCC2(c2ccccc2)c2ccccc2)[C@@H]1OC(=O)C(C)(C)C (stereo partly specified)    2.19 µM (inactive)
Cc1ccc(NC(=O)c2cccc(OP(=O)(O)Nc3ccc(C)cc3)c2)cc1    > 100 µM (inactive)
O=C(O)C1CCCN1Cc1cc2ccccc2c2ccccc12 (stereo unspecified)    > 100 µM (inactive)
Cc1[nH]c2ccccc2c1-c1cc(-c2cc(-c3c(C)[nH]c4ccccc34)nc(N)n2)nc(N)n1    > 100 µM (inactive)
C(/COc1cccnc1)=N\NC1=NCCN1    > 100 µM (inactive)

Switching to the query record.
[in] Fill in the blank: the reported GI50 of O=S1(=O)OCCOS(=O)(=O)C1Cc1cccc2ccccc12 is ____.
[out] 17.7 µM (inactive)

====

# Tested on: RPMI-8226
# PROTOCOL_SUMMARY: NCI tumour cell line growth inhibition, 48 h
Active and inactive are the calls of the source. Cut-off read from the data, not from the text of the source: active = GI50 up to about 1.1 µM and inactive = higher.
Pick from True (active), False (inactive) when you respond.

Reference set (5 entries):
CCN(CC)CCCNc1ccc2nc(C)n3c4ccc(O)cc4c(=O)c1c23    False
C/C=C/[C@@H]1O[C@H](CC#C[Si](C)(C)C)[C@@]2(C=O)C(C)=CC[C@H](C(C)C)[C@@H]12    False
CN(C)CC/C(=N\Nc1c(Cl)cccc1Cl)c1ccccc1    False
CC(=O)OCCOCn1cc(C=O)c2ccccc21    False
COC(=O)CC(=O)OC1C[C@@H]2CCC3C(C)(C)CCC[C@]3(C)C23CC[C@@]1(C)C3 (stereo partly specified)    False

[in] Test call, this molecule: Cc1ccc(-c2ccc3c(c2)Sc2ccccc2O3)n1C
[out] True

[in] Fill in: this test's call for CC(C)CC1C(=O)NCCC(NC(=O)C(Cc2ccc(OC(C)(C)C)cc2)NC(=O)OC(C)(C)C)C(=O)NC(Cc2ccccc2)C(=O)NC(Cc2ccccc2)NC1=O (stereo unspecified) is ___
[out] False

[in] Check the results log: what was the call for COc1ccc(C2=CC(c3ccc4c(c3)OCO4)c3c(c4ccccc4oc3=O)O2)cc1OC (stereo unspecified) ?
[out] False

[in] Hey, what did the test say about N#Cc1c(N)c2c(c(-c3ccccc3)c1-c1ccccc1)C(=O)N(NC(=S)Nc1ccccc1)C2=O ?
[out] False

[in] Please indicate how the test categorized Nc1nc(S)nc(C(=O)Nc2ccc(Cl)c(Cl)c2)c1-c1ccc(Cl)cc1 .
[out] False

[in] Write down the call the test reported for this molecule. Item: C=CC(C)(C)n1cc(C2=C(O)C(=O)C(c3cn(C(C)(C)C=C)c4ccccc34)=C(OC(C)=O)C2=O)c2ccccc21
[out] True

[in] Hey, what did the test say about CC1(C)OCC2OC(n3cnc4c(N)nc(Cl)nc43)C(OS(C)(=O)=O)C2O1 (stereo unspecified) ?
[out] False

[in] Query: recorded result category for Oc1ccc2c(c1)OCC1c3ccccc3OC21 (stereo unspecified) in this test
[out] False

[in] Per the records of this test, what outcome belongs to COC(=O)C1=C(c2ccc3c(c2)OCO3)OC(c2cc(OC)c(OC)c(OC)c2)C1 (stereo unspecified) ?
[out] False

[in] Answer briefly: the call reported for CCOC(=O)CCc1c(C)c2c(O)cc(O)cc2oc1=O in this assay.
[out] False

[in] Any idea what this test logged for CN1C(c2ccccc2)=CC(=O)C(O)=C(c2ccccc2)S1(=O)=O ?
[out] False

[in] Recorded test call requested for COc1cc2c(oc(=O)c3c4oc([Si](C)(C)C)cc4cc(OC)c23)c2cccc(OCc3ccccc3)c12
[out] False

[in] // param item: O=C(c1ccccc1)c1ccc2cccc(O)c2n1 ; yields the recorded call
[out] False

[in] Hi, do you know how CC1S/C(=N/c2nnc(-c3ccccc3)o2)NC1=O (stereo unspecified) came out in this test?
[out] False

[in] Hi team, can someone confirm the assay call for CCCCCCCCCCCCCCCc1nnc(S)[nH]1 ?
[out] False

[in] Can you look up the reported call for Cc1nn(-c2ccccc2)c2nc3c(c(C)nn3-c3ccccc3)c(-c3ccc(C(F)(F)F)cc3)c12 for me?
[out] False
